Values were extracted from patent US20200024330A1.

target: aMLV envelope protein on pseudovirus (negative control) (aMLV); assay: cell-based or functional assay
Experimental Readout: IC50 (µg/mL), pseudovirus neutralization

Please look up its IC50 (µg/mL), pseudovirus neutralization: 1496_C09 (PG9) (TCN-109) (antibody, V domains shown) VH: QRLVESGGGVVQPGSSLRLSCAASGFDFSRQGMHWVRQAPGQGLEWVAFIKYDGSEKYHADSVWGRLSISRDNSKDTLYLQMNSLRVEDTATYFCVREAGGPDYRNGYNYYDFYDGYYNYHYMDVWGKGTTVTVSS VL: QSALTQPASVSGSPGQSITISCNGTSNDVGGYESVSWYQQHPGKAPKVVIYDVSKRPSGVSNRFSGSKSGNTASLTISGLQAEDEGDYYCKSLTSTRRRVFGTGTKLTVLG
> 50 µg/mL
